Property: IC50; scope: individual compounds
# testedTarget: DNA-PK phosphorylation at Serine 2056 (Homo sapiens)
# Construct: FaDu cells were purchased from ATCC; host or cells: FaDu
# protocolNotes: Cellular Assay for Inhibition of DNA-PK Phosphorylation at Serine 2056 in FaDu cells (sandwich ELISA, neocarzinostatin)
# Assay type: cell-based
# testContext: pSer2056 DNA-PK, Table 3

| compoundString | result |
| --- | --- |
| Cn1c(CN(c2cnc3cc(N4CCOCC4)nc(O[C@H]4CC[C@@H](Nc5nccnc5C#N)CC4)c3c2)S(C)(=O)=O)cnc1[N+](=O)[O-] | 10 to 30 µM |
| Cc1nc(N[C@H]2CC[C@@H](Oc3nc(N4CCOCC4)cc4ncc(NS(C)(=O)=O)cc34)CC2)ncc1OCCN1CCN(C)CC1 | < 0.1 µM |

Please look at the following compound next.
Exercise: // IC50 lookup, key: `Oc1cnc2cc(N3CCOCC3)nc(O[C@H]3CC[C@@H](Nc4ncc(OCCN5CCOCC5)cn4)CC3)c2c1`
Key: < 0.1 µM
